- ASSAY_PROTOCOL: protein stability index of a GFP-peptide fusion (GPS, HEK-293T) (PSI 1-6); higher = more stable;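 note: 24-mer peptide tiles fused after GFP, lentivirally expressed, FACS-sorted into six equal bins by GFP/DsRed ratio, decoded by Illumina sequencing, PSI is the read-weighted mean bin number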
- MEASUREMENT_CONDITIONS: treatment: DMSO; c terminus: a fixed tail appended
OBSERVABLE: protein stability index
Give bare numbers.

// solved cases for protein stability index follow
>>> print(df.to_string())
                          seq_string  meas_value
0    NLKNDGRQVEKRRNSGPVVEKLKQ [MMP1]        4.58
1    EGRLRYPSRREPPPRRSRSRSHDR [CLK3]        5.33
2   DYSREVNTTEELEALITDPDEMRM [FEM1A]        5.11
3  RMNDLHYLNLDTWEWNELIPQGIC [KLHDC2]         2.3
4   FHCSMSPGNLEKNRYGDVPCLDQT [PTPN9]        2.79
5    DIELDAARGDAVCTACGSVLEDNI [BRF1]        4.88

--- query ---
Measured protein stability index of YPVGRFPSLHVVKVLLDCGADPDS [FEM1A] : 2.12

###

- ASSAY_PROTOCOL: protein stability index of a GFP-peptide fusion (GPS, HEK-293T) (PSI 1-6); higher = more stable
- MEASUREMENT_CONDITIONS: treatment: MLN4924 1 uM, 8 h; c terminus: a fixed tail appended
Answer -1 if protein stability index is under 3, and 1 if it is 3 or more.

Example results:
                           seq_string  label_class
0    FRNPMMSKLRNYRKDLAKLHREVR [VTI1B]           -1
1  RSGGPPPKKSAPSAVARSNSWMGS [RBMY1A1]            1
2  AKVNYVKNNICFMSHHQEELVPKQ [SLC2A12]            1
3   LSQLRVLCCEWLRPEKHTKEQILE [ZNF232]           -1
4   VQKDKYPEEFSLLKLQTKDGHRPE [SPATS1]            1

Asked: # check: protein stability index of IDLLTFLTGQKAVKVHGLLKTFVK [GFOD1] is greater than or equal to 3
Given back: -1

###

- ASSAY_PROTOCOL: protein stability index of a GFP-peptide fusion (GPS, HEK-293T) (PSI 1-6); higher = more stable
- MEASUREMENT_CONDITIONS: treatment: MLN4924 1 uM, 8 h; c terminus: a fixed tail appended
Lab note: anything with protein stability index at or over 4 counts as criterion met; the rest go in criterion not met.

Example results:
                           seq_string        label_class
0  FGIDVKEVDPTGHSFVLVTSLGLT [MAGEA10]  criterion not met
1    GHHLLKWIIKSNYQGLPVRCVKSI [SRPK2]  criterion not met
2   GRCATRAFHRKSHSLDLNISEKLT [RNF180]  criterion not met
3   TGIVSVAFLLLPLPDELGSQLPQV [MOSPD3]  criterion not met
4    TIKSLSAELLKANEIIKKLQGDLK [SASS6]  criterion not met

Asked: protein stability index >= 4 for RQLEIMGKEVSGDQIEDMFEQGKW [STX11] ?
Given back: criterion not met

Asked: Hello, I need to know if VELGKQKKKYMPYNHQHKYFFLIG [FADS1] has measured protein stability index not below 4. Thanks!
Given back: criterion not met

Asked: Could you verify whether the entry SDVHPVALNFMKGCLKMNPDDRLT [CDKL4] shows protein stability index of no less than 4?
Given back: criterion not met

Asked: # bool: protein stability index of PPHYFFTYRIRIEMSKDALPEKAC [FBXO3] >= 4
Given back: criterion not met

Asked: Decide: is the reported value of protein stability index for RGYPPPRDSYSSSSRGAPRGGGRG [RBMX] equal to or greater than 4?
Given back: criterion met

Asked: Answer whether protein stability index of MEPAVSEPMRDQVARTHLTEDTPK [NSDHL] is greater than or equal to 4.
Given back: criterion met

Asked: Reported protein stability index at or above 4? VKNVVSGGFPIIRDQIFRYVHDPE [FBXO3]
Given back: criterion not met

Asked: Check if protein stability index >= 4 (inclusive). Item: TVSTMYYLWMCSTLALLLNFLACL [SCAMP3]
Given back: criterion not met

Asked: Textbook exercise: given the entry NKKRGWRRLAQEPLGLEVDQFLED [NOP53] , state whether its protein stability index is greater than or equal to 4.
Given back: criterion met

Asked: Is protein stability index at least 4? Consider YAVEASTMAQHAEVLVKSNNLTDR [CARM1]
Given back: criterion met

Asked: In plain terms: is recorded protein stability index at least 4 for FSFMYILVGLTVIGAFLNLVVLRF [KCNK9] ?
Given back: criterion not met

Asked: Does the reported protein stability index for IYRDSYPRNPTVRWGYVAMKFAQV [SOAT1] fall at or above the 4 mark?
Given back: criterion not met

Asked: Has ALIETSYVKVLHHMVKISGGPRIS [MAGEA6] a recorded protein stability index greater than or equal to 4?
Given back: criterion not met

Asked: Could you please find out whether GYAVNVFDIQQGFDNPQVRFFLGD [NSDHL] has protein stability index that meets 4 or exceeds it?
Given back: criterion not met

Asked: Quick check: does MVHQRKLEAELLQIEERHQEKKRK [SMARCE1] have protein stability index greater than or equal to 4?
Given back: criterion met

Asked: Does ELSRQVRSSVELELERCRQQAGLL [PPEF2] have a reported protein stability index of at least 4?
Given back: criterion not met

Asked: Hi, just wondering whether GTIHALIFAWNKWIDIKQFVWYTP [STEAP1] shows protein stability index of 4 or higher.
Given back: criterion not met

Asked: Is protein stability index for AHAVLGQHSHVVRYFSAWAEDDHM [WEE1] at or above 4?
Given back: criterion not met

Asked: Does IKIIKNKKAFLNQAQIELRLLELM [DYRK1B] have a reported protein stability index of at least 4?
Given back: criterion not met

Asked: Threshold query (protein stability index >= 4) on FRSPSMPCSVIRPILKRLERPQDR [CDC25B]
Given back: criterion not met

Asked: Kindly determine if protein stability index recorded for FDRNADGYIDPEELAEIFRASGEH [TNNC2] is above or exactly 4.
Given back: criterion met

Asked: Textbook exercise: given the entry AGIELIIEDDIRPEKQKRKPGLRR [MYBL2] , state whether its protein stability index is greater than or equal to 4.
Given back: criterion met

Data credit: the supplement of paper PMC10567573
